# tested-on: PKR(wt) (Homo sapiens)
# Sequence (P30613 whole entry): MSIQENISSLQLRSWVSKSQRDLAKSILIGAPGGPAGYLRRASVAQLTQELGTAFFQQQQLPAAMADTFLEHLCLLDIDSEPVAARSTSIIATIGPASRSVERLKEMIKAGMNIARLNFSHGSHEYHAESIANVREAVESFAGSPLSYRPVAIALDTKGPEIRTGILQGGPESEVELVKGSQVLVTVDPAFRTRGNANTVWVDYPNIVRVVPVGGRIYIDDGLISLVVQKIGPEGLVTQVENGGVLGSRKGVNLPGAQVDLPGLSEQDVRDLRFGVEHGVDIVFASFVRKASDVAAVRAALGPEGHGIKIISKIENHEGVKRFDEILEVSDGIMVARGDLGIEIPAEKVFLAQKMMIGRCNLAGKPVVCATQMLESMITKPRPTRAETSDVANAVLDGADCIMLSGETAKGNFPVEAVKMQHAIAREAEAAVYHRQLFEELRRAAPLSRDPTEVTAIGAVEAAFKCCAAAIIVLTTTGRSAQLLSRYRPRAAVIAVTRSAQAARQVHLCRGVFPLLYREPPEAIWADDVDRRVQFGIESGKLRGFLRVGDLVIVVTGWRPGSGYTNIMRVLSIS
# assay-comment: Luminescence Biochemical Assay (Kinase Glo Plus), wild type PKR
# test-context: without FBP, read-out: AC50 LUM KGP woFBP AC50 μM gmean
test-readout: AC50

As a guide, the following entries are already answered.
O=C([C@H](O)c1ccccc1)N1CC2=C(C1)CN(S(=O)(=O)c1ccccc1OC(F)(F)F)C2 [Example 18-46]    1 to 40 µM
O=C([C@H](O)c1ccc(F)cc1)N1CC2=C(C1)CN(S(=O)(=O)c1ccc(C(F)(F)F)nc1)C2 [Example 18-64]    1 to 40 µM
O=C([C@H](O)c1ccccc1)N1CC2=C(C1)CN(S(=O)(=O)c1cccc(F)c1)C2 [Example 18-50]    0.1 to 1 µM
O=C(C(F)c1ccccc1)N1CC2=C(C1)CN(S(=O)(=O)c1ccc(OC(F)F)cc1)C2 (stereo not drawn) [Example 18-24]    0.1 to 1 µM

# input If you can, please state the reported AC50 value of O=C(N1CC2=C(C1)CN(S(=O)(=O)c1cccc3cccnc13)C2)N1CC(O)(Cc2ccccc2)C1 [Example 12-1] .
# output 1 to 40 µM

# input If you can, please state the reported AC50 value of O=C(NCc1ccc(F)cc1)N1CC2=C(C1)CN(S(=O)(=O)c1ccc(OC(F)F)cc1)C2 [Example 21-13] .
# output 0.1 to 1 µM

# input If you can, please state the reported AC50 value of Cc1cc(COC(=O)N2CC3=C(C2)CN(S(=O)(=O)c2ccc(OC(F)F)cc2)C3)no1 [Example 22-5] .
# output 0.1 to 1 µM

# input If you can, please state the reported AC50 value of O=C([C@H](O)c1ccccc1)N1CC2=C(C1)CN(S(=O)(=O)c1ccc(C(F)(F)F)cc1)C2 [Example 18-11] .
# output 0.1 to 1 µM

# input If you can, please state the reported AC50 value of COc1ccc(S(=O)(=O)N2CC3=C(CN(C(=O)[C@H](O)c4ccccc4)C3)C2)cc1F [Example 18-17] .
# output ≤ 0.1 µM

# input If you can, please state the reported AC50 value of O=C([C@H]1CCCO1)N1CC2=C(C1)CN(S(=O)(=O)c1ccccn1)C2 [Example 18-60] .
# output 1 to 40 µM

# input If you can, please state the reported AC50 value of COc1ccc(CNC(=O)N2CC3=C(C2)CN(S(=O)(=O)c2ccc4ncsc4c2)C3)cc1 [Example 21-16] .
# output ≤ 0.1 µM

# input If you can, please state the reported AC50 value of O=C(Cc1ccc[nH]1)N1CC2=C(C1)CN(S(=O)(=O)c1cccnc1)C2 [Example 18-73] .
# output 1 to 40 µM

# input If you can, please state the reported AC50 value of O=C([C@H](O)c1ccccc1)N1CC2=C(C1)CN(S(=O)(=O)c1cccc(C(F)(F)F)n1)C2 [Example 9-3] .
# output 0.1 to 1 µM

# input If you can, please state the reported AC50 value of Cc1cccc(Cl)c1S(=O)(=O)N1CC2=C(CN(C(=O)[C@@H](O)c3ccccc3)C2)C1 [Example 18-54] .
# output 1 to 40 µM

# input If you can, please state the reported AC50 value of O=C([C@H](O)c1ccccc1)N1CC2=C(C1)CN(S(=O)(=O)c1cc(F)cc(F)c1)C2 [Example 18-52] .
# output 0.1 to 1 µM

# input If you can, please state the reported AC50 value of O=C(NCc1ccc(F)cc1)N1CC2=C(C1)CN(S(=O)(=O)c1ccccn1)C2 [Example 21-41] .
# output 0.1 to 1 µM

# input If you can, please state the reported AC50 value of O=C(Cc1ccc[nH]1)N1CC2=C(C1)CN(S(=O)(=O)c1ccc(OC(F)F)cc1)C2 [Example 18-27] .
# output 1 to 40 µM

# input If you can, please state the reported AC50 value of O=C(c1csc(Nc2cccnc2)n1)N1CC2=C(C1)CN(S(=O)(=O)c1ccc3occc3c1)C2 [Example 18-79] .
# output 0.1 to 1 µM

# input If you can, please state the reported AC50 value of O=C(C(O)c1ccc(F)c(F)c1)N1CC2=C(C1)CN(S(=O)(=O)c1ccc(OC(F)F)cc1)C2 (stereo not drawn) [Example 18-23] .
# output 0.1 to 1 µM

# input If you can, please state the reported AC50 value of O=C(NCc1ccccc1F)N1CC2=C(C1)CN(S(=O)(=O)c1cccnc1)C2 [Example 21-37] .
# output 0.1 to 1 µM

The measurements presented in this section are drawn from patent US12122778B2.
